The entries that follow carry Ki values tested on PKA (Homo sapiens), drawn from several published reports.

Give the measured Ki of C=C(c1ccccc1)c1ncnc2[nH]ccc12 .
500 to 5000 nM

Please give the measured Ki for this compound: O=C(Nc1nc(-c2c[nH]c3ncc(Br)cc23)cs1)C1Cc2ccccc2C1
500 to 5000 nM

So what does the record say about Ki for CC(=O)NCC(=O)Nc1nc(-c2c[nH]c3ncccc23)cs1 ?
500 to 5000 nM

// returns reported Ki for input N#Cc1cccc(Nc2n[nH]c3ccc(NC(=O)C(CCN)c4ccc(Cl)c(Cl)c4)cc23)c1 (stereo not drawn)
< 1000 nM

* * *

// note: pKi values for PKA (Homo sapiens, UniProt P17612) were reported in different studies
pKi: −log10 of the molar value.

Record excerpt, results attached:
Cc1cc(NC(=O)C(CCN)c2ccc(Cl)c(Cl)c2)cc2cn[nH]c12 (stereo not drawn) ... > 6.00
NCCC(C(=O)Nc1ccc2[nH]nc(NC(=O)c3cccc(Oc4ccccc4)c3)c2c1)c1ccc(Cl)c(Cl)c1 (stereo not drawn) ... > 6.00
Cc1sc(NC(=O)Cc2cccc(NS(C)(=O)=O)c2)nc1-c1c[nH]c2ncccc12 ... 5.30 to 6.30
O=C(Nc1nc(-c2c[nH]c3ncccc23)cs1)C1CCOCC1 ... > 6.30
O=C(Cc1ccc(F)cc1)Nc1nc(-c2c[nH]c3nccc(F)c23)cs1 ... > 6.30
O=C(Cc1cccc(OCCN2CCNCC2)c1)N(c1nc(-c2c[nH]c3ncccc23)cs1)C1CC1 ... > 6.30
CN1CCN(CCOc2cccc(CC(=O)Nc3nc(-c4c[nH]c5ncc(F)cc45)cs3)c2)CC1 ... 5.30 to 6.30
O=C(Cc1ccc(F)cc1)Nc1nc(-c2c[nH]c3ncccc23)cs1 ... > 6.30
O=C(Cc1ccccc1)Nc1nc(-c2c[nH]c3ncc(O)cc23)cs1 ... > 6.30
Cc1sc(NC(=O)Cc2ccccc2)nc1-c1c[nH]c2ncccc12 ... 5.30 to 6.30

Item: CS(=O)(=O)N1CCC[C@H]1C(=O)Nc1nc(-c2c[nH]c3ncccc23)cs1 Test system: PKA (Homo sapiens, UniProt P17612) Read-out: pKi Value: ?
> 6.30

Entry CS(=O)(=O)Nc1cccc(CC(=O)Nc2nc(-c3c[nH]c4nccc(F)c34)cs2)c1 , system PKA (Homo sapiens, UniProt P17612): what pKi was measured?
5.30 to 6.30

Which measured pKi belongs to O=C(Cc1cccc(S(=O)(=O)N2CCOCC2)c1)Nc1nc(-c2c[nH]c3ncccc23)cs1 , tested on PKA (Homo sapiens, UniProt P17612)?
5.30 to 6.30

Provide the documented pKi with PKA (Homo sapiens, UniProt P17612) as the system for NCCC(C(=O)Nc1ccc2[nH]nc(NC(=O)c3ccco3)c2c1)c1ccccc1 (stereo not drawn)
> 6.00

Quick check: pKi on PKA (Homo sapiens, UniProt P17612), item O=C(Nc1csc(-c2c[nH]c3ncccc23)n1)c1ccccc1 ?
5.30 to 6.30

For PKA (Homo sapiens, UniProt P17612), provide pKi of NCCC(C(=O)Nc1ccc2[nH]ncc2c1)c1cccc(C(F)(F)F)c1 (stereo not drawn) please.
> 6.00

Value wanted: pKi (PKA (Homo sapiens, UniProt P17612)) of entry NCCC(C(=O)Nc1ccc2[nH]nc(NC(=O)c3ccccc3)c2c1)c1ccc(Cl)c(Cl)c1 (stereo not drawn)
> 6.00

Find the measured pKi: item c1nc(CCC2OCCCO2)c2cc[nH]c2n1 , target or system PKA (Homo sapiens, UniProt P17612).
5.30 to 6.30
